test system: OVCAR-3; test: NCI tumour cell line growth inhibition, 48 h
The source made the active and inactive calls. Cut-off read from the data, not from the text of the source: active = GI50 up to about 1.1 µM and inactive = higher.
Pick one and only one: Y (active), N (inactive)

Called result for Cc1cc(C)c(S(=O)(=O)N(CCCCN)OCCCN)c(C)c1
N

Called result for NCCSSCc1ccccc1CSSCCN
N

Called result for CC1C(C)(C)C23CC12C1(OCCO1)C3Br (stereo not given)
N

Called result for COC1C(O)=C2C(=O)O/C(C)=C/C=C/C=C/C=C\CC(c3ccccc3)NC(=O)\C=C/C=C\C=C\C=C\[C@@]2(C)[C@@H]1O (stereo not given in full)
Y

Called result for CCOC(=O)[C@H]1C[C@]23CN(C(=O)OC(C)(C)C)CC[C@H]2CCC2(SCCCS2)[C@@H]3N1C
N

Called result for CC(C)(C)[Si](C)(C)OCC1OC(n2cnc3c(NC(=O)c4ccccc4)ncnc32)CC1O (stereo not given)
N

Called result for COc1ccc(Cn2c(=O)c(OS(=O)(=O)C(F)(F)F)c(C)c3cc4ccccc4cc32)cc1
N

Called result for O=C(/C=C1\Nc2ccccc2N=C1NC12CC3CC(CC(C3)C1)C2)c1ccc(Br)cc1
N

Called result for O=c1cc(-c2ccncc2)[nH]c2cc3c(cc12)OCO3
N

Called result for Nc1ccc(-c2nnc(-c3c(Cl)c(Cl)c(Cl)c(Cl)c3-c3nc4cc(C(=O)c5ccccc5)ccc4[nH]3)o2)cc1
N

Called result for COC(=O)C/N=C1\NC(=S)N(Cc2ccc(OC)cc2)C12CCCC2
N

Called result for c1c2c(cc(-n3nnc4c3CCCCCC4)c1-n1nnc3c1CCCCCC3)CCCCCC2
N

Called result for CCCCCCCCCCCCCP(=O)(OC)OC
N

Called result for Cc1c2cnccc2c(C)c2c1c1ccccc1n2CCOC(=O)c1ccccc1
N

Called result for COc1cccc2c1OC1Sc3ccccc3-c3nn(-c4ccccc4)c-2c31 (stereo not given)
N

Called result for CC12CC[C@H](O)C(C)(C)[C@H]1CC[C@](C)(O)C2COc1ccc2ccc(=O)oc2c1 (stereo not given in full)
N

Called result for COC(=O)c1cc2c(cc1CC(Cc1ccc3c(c1)CCC3)C(=O)OC)CCC2 (stereo not given)
N

Called result for CCOC(=O)C1(C(=O)OCC)C[C@H](C)[C@](C)(O)C1
N

Called result for CCOP(=O)(/C=C\n1cc(C)c(=O)[nH]c1=O)OCC
N

Called result for Brc1ccc(C[N+]23CN4CN(CN(C4)C2)C3)cc1
N

Entry source: ChEMBL document CHEMBL1201862
